- study_target: T1, rhCD39-ECD-His (R&D Systems) (human, UniProt P49961 38-478)
- T1 construct: Bought protein; that entry runs on through the C-terminal transmembrane and cytoplasmic residues; also called recombinant human CD39 extracellular domain; soluble recombinant human CD39 (ENTDP1) ECD; not shown: His tag
- T1 sequence: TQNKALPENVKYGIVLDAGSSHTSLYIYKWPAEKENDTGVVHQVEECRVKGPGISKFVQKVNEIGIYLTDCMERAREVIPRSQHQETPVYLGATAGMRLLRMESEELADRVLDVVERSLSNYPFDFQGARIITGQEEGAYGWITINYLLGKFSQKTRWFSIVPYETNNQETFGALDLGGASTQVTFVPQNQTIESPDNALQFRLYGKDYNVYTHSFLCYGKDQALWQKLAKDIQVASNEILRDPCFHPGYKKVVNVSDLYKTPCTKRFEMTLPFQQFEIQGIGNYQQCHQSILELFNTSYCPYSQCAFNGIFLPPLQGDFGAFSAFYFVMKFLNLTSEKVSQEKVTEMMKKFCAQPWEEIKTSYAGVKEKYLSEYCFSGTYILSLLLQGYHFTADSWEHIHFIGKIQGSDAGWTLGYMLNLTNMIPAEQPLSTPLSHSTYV
- test_name: BLI (Octet), IgG on anti-human Fc sensor, rhCD39-ECD-His 10-300 nM, 1:1 fit
measurement_name: kon (M⁻¹ s⁻¹)
Write the number in M⁻¹ s⁻¹ without appending the unit.

GET /values?readout=kon&item= 29871 (antibody, V domains shown) VH: QVQLVQSGAEVKKPGASVKVSCKASGYTFQSYYMHWVRQAPGQGLEWMGKINPSGGSTWYAQKFQGRVTMTRDTSTSTVYMELSSLRSEDTAVYYCARGKREGGTEYLRHWGQGTLVTVSS VL: EIVLTQSPGTLSLSPGERATLSCRASQSVSSSYLAWYQQKPGQAPRLLIYGASSRATGIPDRFSGSGSGTDFTLTISRLEPEDFAVYYCQQYHSYITFGGGTKVEIK
273000

Now this one: 27568 (antibody, V domains shown) VH: QVQLVQSGAEVKKPGSSVKVPCKASGGTFSSYAISWVRQAPEQGLEWMGSIIPIFGTANYAQKFQGRVTITADESTSTAYMELSSLRSEDTAVYYCAGESGGYRDHKLDVWGQGTVVTVSS VL: EIVLTQSPATLSLSPGERATLSCRASQSVSSYLAWYQQKPGQAPRLLIYDASNRATGIPARFSGSGSGTDFTLTISSLEPEDFAVYYCQQSVFWPITFGGGTKVEIKR
272000

Now this one: 31873 (antibody, V domains shown) VH: QVQLVQSGAEVKKPGSSVKVSCKASGGTFSKYGISWVRQAPGQGLEWMGSIIPEFGIANYAQKFQGRVTITADESTSTAYMELSSLRSEDTAVYYCARESGGYRDHRLGVWGQGTMVTVSS VL: EIVMTQSPATLSVSPGERATLSCRASQSVGSNLAWYQQKPGQAPRLLIYGASTRASGIPARFSGSGSGTEFTLTISSLQSEDFAVYYCQQYLLWPLTFGGGTKVEIKR
311000

These measurements were taken from patent US20250026850A1.
